test system: Anti-β-1,6-Glucan IgG antibodies (affinity purified from IVIG, Baxter); test: ELISA: binding of oligosaccharides to anti-β-1,6-glucan antibodies; conditions: plate coated with oligosaccharide in PBS; 40 ug/mL anti-Beta 1,6 Glucan IgG; anti-human IgG-HRP, TMB, absorbance at 620 nm; further: key: a plus (+) sign indicates that the glucan was active in the assay; a minus (−) sign indicates that the glucan was not active; the '+/−' symbol indicates inconclusive results
assay.readout: ELISA assay data: glucan active in detection of anti-beta glucan IgG

1. O=C(O)C1CCN(CC(O)[C@@H](O)[C@H](O)[C@H](O)CO[C@@H]2O[C@H](CO[C@@H]3O[C@H](CO[C@@H]4O[C@H](CO)[C@@H](O)[C@H](O)[C@H]4O)[C@@H](O)[C@H](O)[C@H]3O)[C@@H](O)[C@H](O)[C@H]2O)CC1 (mixture of isomers)	+
2. OC[C@H]1O[C@@H](OC[C@H]2O[C@@H](OC[C@H]3O[C@@H](OC[C@H]4O[C@@H](OC[C@H]5O[C@H](OCCCl)[C@H](O)[C@@H](O)[C@@H]5O)[C@H](O)[C@@H](O)[C@@H]4O)[C@H](O)[C@@H](O)[C@@H]3O)[C@H](O)[C@@H](O)[C@@H]2O)[C@H](O)[C@@H](O)[C@@H]1O	+
3. OC[C@H]1O[C@@H](OC[C@H]2O[C@@H](OC[C@H]3O[C@@H](OC[C@H]4O[C@@H](OC[C@H]5O[C@@H](OC[C@H]6O[C@@H](OC[C@H]7O[C@@H](OC[C@H]8O[C@H](OCCCl)[C@H](O)[C@@H](O)[C@@H]8O)[C@H](O)[C@@H](O)[C@@H]7O)[C@H](O)[C@@H](O)[C@@H]6O)[C@H](O)[C@@H](O)[C@@H]5O)[C@H](O)[C@@H](O)[C@@H]4O)[C@H](O)[C@@H](O)[C@@H]3O)[C@H](O)[C@@H](O)[C@@H]2O)[C@H](O)[C@@H](O)[C@@H]1O	+

----------
test system: Anti-β-1,6-Glucan IgG antibodies (affinity purified from IVIG, Baxter); assay: ELISA: binding of oligosaccharides to anti-β-1,6-glucan antibodies; details: plate coated with oligosaccharide in PBS; 40 ug/mL anti-Beta 1,6 Glucan IgG; anti-human IgG-HRP, TMB, absorbance at 620 nm; further: key: a plus (+) sign indicates that the glucan was active in the assay; a minus (−) sign indicates that the glucan was not active; the '+/−' symbol indicates inconclusive results
assay.readout: ELISA assay data: glucan active in detection of anti-beta glucan IgG

1. [N-]=[N+]=NCCO[C@@H]1OC(CO[C@@H]2OC(CO[C@@H]3OC(CO[C@@H]4OC(CO[C@@H]5OC(CO[C@@H]6O[C@H](CO)[C@@H](O)[C@H](O)[C@H]6O)[C@@H](O)[C@H](O)[C@H]5O)[C@@H](O)[C@H](O)[C@H]4O)[C@@H](O)[C@H](O)[C@H]3O)[C@@H](O)[C@H](O)[C@H]2O)[C@@H](O)[C@H](O)[C@H]1O (stereo partly drawn)	+
2. [N-]=[N+]=NCCO[C@@H]1O[C@H](CO[C@@H]2O[C@H](CO[C@@H]3O[C@H](CO[C@@H]4O[C@H](CO)[C@@H](O)[C@H](O)[C@H]4O)[C@@H](O)[C@H](O)[C@H]3O)[C@@H](O)[C@H](O)[C@H]2O)[C@@H](O)[C@H](O)[C@H]1O (stereo in doubt)	+
3. O=CCCCCO[C@@H]1O[C@H](CO[C@@H]2O[C@H](CO[C@@H]3O[C@H](CO[C@@H]4O[C@H](CO)[C@@H](O)[C@H](O)[C@H]4O)[C@@H](O)[C@H](O)[C@H]3O)[C@@H](O)[C@H](O)[C@H]2O)[C@@H](O)[C@H](O)[C@H]1O	+

----------
system: Anti-β-1,6-Glucan IgG antibodies (affinity purified from IVIG, Baxter); test: ELISA: binding of oligosaccharides to anti-β-1,6-glucan antibodies; settings: plate coated with oligosaccharide in PBS; 40 ug/mL anti-Beta 1,6 Glucan IgG; anti-human IgG-HRP, TMB, absorbance at 620 nm; further: key: a plus (+) sign indicates that the glucan was active in the assay; a minus (−) sign indicates that the glucan was not active; the '+/−' symbol indicates inconclusive results
assay.readout: ELISA assay data: glucan active in detection of anti-beta glucan IgG

1. CN(CCCCCN)CC(O)[C@@H](O)[C@H](O)[C@H](O)CO[C@@H]1O[C@H](CO[C@@H]2O[C@H](CO[C@@H]3O[C@H](CO[C@@H]4O[C@H](CO[C@@H]5O[C@H](CO[C@@H]6O[C@H](CO)[C@@H](O)[C@H](O)[C@H]6O)[C@@H](O)[C@H](O)[C@H]5O)[C@@H](O)[C@H](O)[C@H]4O)[C@@H](O)[C@H](O)[C@H]3O)[C@@H](O)[C@H](O)[C@H]2O)[C@@H](O)[C@H](O)[C@H]1O (mixture of isomers) [N(Me),N(CH2)5NH2, n=6]	+
2. CO[C@H]1O[C@H](CO[C@@H]2O[C@H](CO[C@@H]3O[C@H](CO[C@@H]4O[C@H](CO[C@@H]5O[C@H](CO[C@@H]6O[C@H](CO)[C@@H](O)[C@H](O)[C@H]6O)[C@@H](O)[C@H](O)[C@H]5O)[C@@H](O)[C@H](O)[C@H]4O)[C@@H](O)[C@H](O)[C@H]3O)[C@@H](O)[C@H](O)[C@H]2O)[C@@H](O)[C@H](O)[C@H]1O [OCH3, n=6]	+

----------
system: Anti-β-1,6-Glucan IgG antibodies (affinity purified from IVIG, Baxter); assay: ELISA: binding of oligosaccharides to anti-β-1,6-glucan antibodies; settings: plate coated with oligosaccharide in PBS; 40 ug/mL anti-Beta 1,6 Glucan IgG; anti-human IgG-HRP, TMB, absorbance at 620 nm; further: key: a plus (+) sign indicates that the glucan was active in the assay; a minus (−) sign indicates that the glucan was not active; the '+/−' symbol indicates inconclusive results
assay.readout: ELISA assay data: glucan active in detection of anti-beta glucan IgG

Examples with their reported ELISA assay data: glucan active in detection of anti-beta glucan IgG follow.
1. COC1O[C@H](CO[C@@H]2O[C@H](CO[C@@H]3O[C@H](CO[C@@H]4O[C@H](CO[C@@H]5O[C@H](CO[C@@H]6O[C@H](CO[C@@H]7O[C@H](CO[C@@H]8O[C@H](CO[C@@H]9O[C@H](CO)[C@@H](O)[C@H](O)[C@H]9O)[C@@H](O)[C@H](O)[C@H]8O)[C@@H](O)[C@H](O)[C@H]7O)[C@@H](O)[C@H](O)[C@H]6O)[C@@H](O)[C@H](O)[C@H]5O)[C@@H](O)[C@H](O)[C@H]4O)[C@@H](O)[C@H](O)[C@H]3O)[C@@H](O)[C@H](O)[C@H]2O)[C@@H](O)[C@H](O)[C@H]1O (some centres unmarked)	+
2. CN(Cc1ccc(C(=O)O)cc1)CC(O)[C@@H](O)[C@H](O)[C@H](O)CO[C@@H]1O[C@H](CO[C@@H]2O[C@H](CO[C@@H]3O[C@H](CO[C@@H]4O[C@H](CO)[C@@H](O)[C@H](O)[C@H]4O)[C@@H](O)[C@H](O)[C@H]3O)[C@@H](O)[C@H](O)[C@H]2O)[C@@H](O)[C@H](O)[C@H]1O (mixture of isomers)	+
3. O=C(O)C1CCN(CC(O)[C@@H](O)[C@H](O)[C@H](O)CO[C@@H]2O[C@H](CO[C@@H]3O[C@H](CO[C@@H]4O[C@H](CO)[C@@H](O)[C@H](O)[C@H]4O)[C@@H](O)[C@H](O)[C@H]3O)[C@@H](O)[C@H](O)[C@H]2O)C1 (mixture of isomers)	+
4. CN(CCCCCN)CC(O)[C@@H](O)[C@H](O)[C@H](O)CO[C@@H]1O[C@H](CO[C@@H]2O[C@H](CO[C@@H]3O[C@H](CO[C@@H]4O[C@H](CO[C@@H]5O[C@H](CO)[C@@H](O)[C@H](O)[C@H]5O)[C@@H](O)[C@H](O)[C@H]4O)[C@@H](O)[C@H](O)[C@H]3O)[C@@H](O)[C@H](O)[C@H]2O)[C@@H](O)[C@H](O)[C@H]1O (mixture of isomers)	+
5. [N-]=[N+]=NCCOC1OC(COC2OC(COC3OC(COC4OC(COC5OC(COC6OC(COC7OC(COC8OC(CO)C(O)C(O)C8O)C(O)C(O)C7O)C(O)C(O)C6O)C(O)C(O)C5O)C(O)C(O)C4O)C(O)C(O)C3O)C(O)C(O)C2O)C(O)C(O)C1O (centres unmarked)	+
6. [N-]=[N+]=NCCOC1OC(COC2OC(COC3OC(COC4OC(COC5OC(CO)C(O)C(O)C5O)C(O)C(O)C4O)C(O)C(O)C3O)C(O)C(O)C2O)C(O)C(O)C1O (centres unmarked)	+
7. O=C(O)C1CCN(CC(O)[C@@H](O)[C@H](O)[C@H](O)CO[C@@H]2O[C@H](CO[C@@H]3O[C@H](CO[C@@H]4O[C@H](CO[C@@H]5O[C@H](CO[C@@H]6O[C@H](CO)[C@@H](O)[C@H](O)[C@H]6O)[C@@H](O)[C@H](O)[C@H]5O)[C@@H](O)[C@H](O)[C@H]4O)[C@@H](O)[C@H](O)[C@H]3O)[C@@H](O)[C@H](O)[C@H]2O)CC1 (mixture of isomers)	+
8. CN(CCCCCN)CC(O)[C@@H](O)[C@H](O)[C@H](O)CO[C@@H]1O[C@H](CO[C@@H]2O[C@H](CO[C@@H]3O[C@H](CO)[C@@H](O)[C@H](O)[C@H]3O)[C@@H](O)[C@H](O)[C@H]2O)[C@@H](O)[C@H](O)[C@H]1O (mixture of isomers)	+
9. COC1O[C@H](CO[C@@H]2O[C@H](CO[C@@H]3O[C@H](CO[C@@H]4O[C@H](CO[C@@H]5O[C@H](CO[C@@H]6O[C@H](CO[C@@H]7O[C@H](CO[C@@H]8O[C@H](CO)[C@@H](O)[C@H](O)[C@H]8O)[C@@H](O)[C@H](O)[C@H]7O)[C@@H](O)[C@H](O)[C@H]6O)[C@@H](O)[C@H](O)[C@H]5O)[C@@H](O)[C@H](O)[C@H]4O)[C@@H](O)[C@H](O)[C@H]3O)[C@@H](O)[C@H](O)[C@H]2O)[C@@H](O)[C@H](O)[C@H]1O (some centres unmarked)	+
10. O=C(O)C1CCN(CC(O)[C@@H](O)[C@H](O)[C@H](O)CO[C@@H]2O[C@H](CO[C@@H]3O[C@H](CO[C@@H]4O[C@H](CO[C@@H]5O[C@H](CO)[C@@H](O)[C@H](O)[C@H]5O)[C@@H](O)[C@H](O)[C@H]4O)[C@@H](O)[C@H](O)[C@H]3O)[C@@H](O)[C@H](O)[C@H]2O)CC1 (mixture of isomers)	+

Now look at this entry.
## Input # returns recorded ELISA assay data: glucan active in detection of anti-beta glucan IgG (system: Anti-β-1,6-Glucan IgG antibodies (affinity purified from IVIG, Baxter)) for OC[C@H]1O[C@@H](OC[C@H]2O[C@@H](OC[C@H]3O[C@@H](OC[C@H]4O[C@@H](OC[C@H]5O[C@@H](OC[C@H]6O[C@@H](OC[C@H]7O[C@@H](OC[C@H]8O[C@@H](OC[C@H]9OC(OCCCl)[C@H](O)[C@@H](O)[C@@H]9O)[C@H](O)[C@@H](O)[C@@H]8O)[C@H](O)[C@@H](O)[C@@H]7O)[C@H](O)[C@@H](O)[C@@H]6O)[C@H](O)[C@@H](O)[C@@H]5O)[C@H](O)[C@@H](O)[C@@H]4O)[C@H](O)[C@@H](O)[C@@H]3O)[C@H](O)[C@@H](O)[C@@H]2O)[C@H](O)[C@@H](O)[C@@H]1O (some centres unmarked)
## Output +
